- target_system: T1, EsCas13d, nuclease-dead (Eubacterium siraeum, UniProt B0MS50, R295A;H300A;R849A;H854A)
- T1 sequence: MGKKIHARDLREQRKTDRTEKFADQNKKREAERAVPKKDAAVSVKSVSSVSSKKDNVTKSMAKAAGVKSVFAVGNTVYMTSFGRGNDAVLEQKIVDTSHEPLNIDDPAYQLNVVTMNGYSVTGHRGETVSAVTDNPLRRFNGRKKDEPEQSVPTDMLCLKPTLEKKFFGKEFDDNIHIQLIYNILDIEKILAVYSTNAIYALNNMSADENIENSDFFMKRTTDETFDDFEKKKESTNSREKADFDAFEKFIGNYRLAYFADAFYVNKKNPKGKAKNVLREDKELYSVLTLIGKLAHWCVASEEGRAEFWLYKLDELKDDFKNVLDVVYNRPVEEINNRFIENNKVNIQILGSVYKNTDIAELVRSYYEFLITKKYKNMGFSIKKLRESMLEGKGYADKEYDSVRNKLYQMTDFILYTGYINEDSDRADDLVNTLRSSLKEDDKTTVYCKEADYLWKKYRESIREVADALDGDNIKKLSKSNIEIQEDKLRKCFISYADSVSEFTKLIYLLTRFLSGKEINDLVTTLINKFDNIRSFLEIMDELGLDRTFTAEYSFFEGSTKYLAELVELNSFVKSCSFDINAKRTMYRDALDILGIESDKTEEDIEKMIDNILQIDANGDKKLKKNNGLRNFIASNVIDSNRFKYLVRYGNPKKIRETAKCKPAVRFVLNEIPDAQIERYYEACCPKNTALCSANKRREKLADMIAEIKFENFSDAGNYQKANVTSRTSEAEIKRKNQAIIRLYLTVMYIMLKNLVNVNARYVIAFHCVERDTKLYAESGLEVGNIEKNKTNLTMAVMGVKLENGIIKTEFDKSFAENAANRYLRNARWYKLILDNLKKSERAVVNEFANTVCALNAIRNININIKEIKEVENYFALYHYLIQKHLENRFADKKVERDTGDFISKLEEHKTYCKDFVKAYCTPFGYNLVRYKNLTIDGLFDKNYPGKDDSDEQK
- protocol: crRNA (strand 1, pre-loaded); Mg2+; 40 mM Tris-HCl pH 7.5, 150 mM NaCl, 6 mM MgCl2, 1 mM DTT, 0.1% Tween-20, 0.2 mg/ml BSA; 25 C; 10 min per concentration, then washed
- assay_conditions: tags: His6-TwinStrep-SUMO cleaved; N-terminal SNAP kept (SNAP-Surface 488); label: 3' end held by stalled T7 RNA polymerase
observed_property: pKd
Note: pKd values are expressed as the negative base-10 logarithm of concentration in M.

Here are 3 binders together with their reported answers.
target 1 G5A,C6U (mixed) RNA 1: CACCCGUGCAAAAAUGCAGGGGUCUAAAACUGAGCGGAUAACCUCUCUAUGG RNA 2: GGGAAUGGAUCCACAUCUACGAAUUCGUACCAUAGAGAGGUUAUCUACUCACCGAGAUCGGAAGAGCACACGU ... 7.88
target 1 U10C,U19C (mixed) RNA 1: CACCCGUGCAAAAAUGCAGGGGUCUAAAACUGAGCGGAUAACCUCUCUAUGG RNA 2: GGGAAUGGAUCCACAUCUACGAAUUCGUACCACAGAGAGGUCAUCCGCUCACCGAGAUCGGAAGAGCACACGU ... 7.15
target 1 insA 3' of 11,insA 3' of 10 (mixed) RNA 1: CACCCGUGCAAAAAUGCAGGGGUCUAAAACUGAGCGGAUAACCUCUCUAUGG RNA 2: GGGAAUGGAUCCACAUCUACGAAUUCGUACCAUAGAGAGGUAUAAUCCGCUCACCGAGAUCGGAAGAGCACACGU ... 8.03

Input: Indicate its recorded pKd; the binder in question is target 1 insC 3' of 15,insU 3' of 7 (mixed) RNA 1: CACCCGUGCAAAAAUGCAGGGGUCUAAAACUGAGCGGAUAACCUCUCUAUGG RNA 2: GGGAAUGGAUCCACAUCUACGAAUUCGUACCAUAGAGCAGGUUAUCUCGCUCACCGAGAUCGGAAGAGCACACGU
Output: 7.77

Input: Given target 1 U8G,A9U (mixed) RNA 1: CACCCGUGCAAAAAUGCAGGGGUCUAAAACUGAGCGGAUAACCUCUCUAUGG RNA 2: GGGAAUGGAUCCACAUCUACGAAUUCGUACCAUAGAGAGGUUUGCCGCUCACCGAGAUCGGAAGAGCACACGU , respond with its pKd.
Output: 7.94

Input: Return reported pKd. Input binder: target 1 MT 5'PFS GUG 3'PFS ACC (mixed) RNA 1: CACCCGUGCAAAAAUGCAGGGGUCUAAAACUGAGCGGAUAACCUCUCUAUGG RNA 2: GGGAAUGGAUCCACAUCUACGAAUUCGUGCCAUAGAGAGGUUAUCCGCUCAACCAGAUCGGAAGAGCACACGU
Output: 7.90

Input: Identify pKd associated with the binder target 1 insA 3' of 7,insU 3' of 5 (mixed) RNA 1: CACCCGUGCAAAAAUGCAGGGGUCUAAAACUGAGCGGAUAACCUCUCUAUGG RNA 2: GGGAAUGGAUCCACAUCUACGAAUUCGUACCAUAGAGAGGUUAUCACGUCUCACCGAGAUCGGAAGAGCACACGU
Output: 7.94

Input: Note pKd for the binder shown: target 3 insC 3' of 5,insU 3' of 4 (mixed) RNA 1: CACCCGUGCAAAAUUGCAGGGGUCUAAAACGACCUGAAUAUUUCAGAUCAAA RNA 2: GGGAAUGGAUCCACAUCUACGAAUUCGUUUUUGAUCUGAAAUAUUCACGUGUCUGCAGAUCGGAAGAGCACACGU
Output: 8.01

Input: Return reported pKd. Input binder: target 1 MT 5'PFS UUC 3'PFS CCU (mixed) RNA 1: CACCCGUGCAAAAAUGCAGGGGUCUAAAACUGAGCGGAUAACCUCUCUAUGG RNA 2: GGGAAUGGAUCCACAUCUACGAAUUCUUCCCAUAGAGAGGUUAUCCGCUCACCUAGAUCGGAAGAGCACACGU
Output: 7.18

Input: Report pKd for target 1 MT 5'PFS GUG 3'PFS CCC (mixed) RNA 1: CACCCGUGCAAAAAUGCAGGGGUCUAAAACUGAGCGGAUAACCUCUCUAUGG RNA 2: GGGAAUGGAUCCACAUCUACGAAUUCGUGCCAUAGAGAGGUUAUCCGCUCACCCAGAUCGGAAGAGCACACGU
Output: 7.64

Input: Given target 2 MT 5'PFS GCG 3'PFS CGU (mixed) RNA 1: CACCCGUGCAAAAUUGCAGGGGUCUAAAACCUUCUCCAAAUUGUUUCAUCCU RNA 2: GGGAAUGGAUCCACAUCUACGAAUUCGCGAGGAUGAAACAAUUUGGAGAAGCGUAGAUCGGAAGAGCACACGU , respond with its pKd.
Output: 7.84

Input: Return pKd (reported value) for this binder: target 1 insC 3' of 12,insA 3' of 5 (mixed) RNA 1: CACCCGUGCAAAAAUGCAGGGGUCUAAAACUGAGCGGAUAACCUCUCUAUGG RNA 2: GGGAAUGGAUCCACAUCUACGAAUUCGUACCAUAGAGAGGCUUAUCCGACUCACCGAGAUCGGAAGAGCACACGU
Output: 7.98
